Experiment: Stability of powders under high humidity (HPLC purity)
Type: physicochemical
Settings: powder, Day 0
Residues, ends and D or L forms follow the SMILES beside them. *: point of attachment. CH2CO2tBu = CC(C)(C)OC(=O)C*; Carboxymethyl = O=C(O)C*; Allyl = C=CC*; X1 = CCCCCCS*; SEt = CCS*
readout type: Day 0 (purity) (%)
Just the number in %, nothing appended.

Form field: reported Day 0 (purity) of C=CCSCC(NC(=O)C(NC(=O)CNC(=O)C(CCSC)NC(=O)C(CCCNC(=N)N)NC(=O)C(Cc1ccccc1)NC(=O)C1CCCN1C(=O)C(C)N)C(C)CC)C(=O)NC(C(=O)NC(C(=O)NC(CC(N)=O)C(=O)O)C(C)O)C(C)O (centres unmarked) [Peptide (3)] (H-APFRMGIC(Allyl)TTN-OH; configuration not given here)
97.605

Further cases:
Form field: reported Day 0 (purity) of CCSSCC(NC(=O)C(NC(=O)CNC(=O)C(CCSC)NC(=O)C(CCCNC(=N)N)NC(=O)C(Cc1ccccc1)NC(=O)C1CCCN1C(=O)C(C)N)C(C)CC)C(=O)NC(C(=O)NC(C(=O)NC(CC(N)=O)C(=O)O)C(C)O)C(C)O (centres unmarked) [(5)] (H-APFRMGIC(SEt)TTN-OH; configuration not given here)
97.482

Now consider CCC(C)C(NC(=O)CNC(=O)C(CCSC)NC(=O)C(CCCNC(=N)N)NC(=O)C(Cc1ccccc1)NC(=O)C1CCCN1C(=O)C(C)N)C(=O)NC(CSCC(=O)OC(C)(C)C)C(=O)NC(C(=O)NC(C(=O)NC(CC(N)=O)C(=O)O)C(C)O)C(C)O (centres unmarked) [(4)] (H-APFRMGIC(CH2CO2tBu)TTN-OH; configuration not given here) .
96.017

Now consider CCCCCCSSCC(NC(=O)C(NC(=O)CNC(=O)C(CCSC)NC(=O)C(CCCNC(=N)N)NC(=O)C(Cc1ccccc1)NC(=O)C1CCCN1C(=O)C(C)N)C(C)CC)C(=O)NC(C(=O)NC(C(=O)NC(CC(N)=O)C(=O)O)C(C)O)C(C)O (centres unmarked) [(6)] (H-APFRMGIC(X1)TTN-OH; configuration not given here) .
96.235

Now consider CCC(C)C(NC(=O)CNC(=O)C(CCSC)NC(=O)C(CCCNC(=N)N)NC(=O)C(Cc1ccccc1)NC(=O)C1CCCN1C(=O)C(C)N)C(=O)NC(CSCC(=O)O)C(=O)NC(C(=O)NC(C(=O)NC(CC(N)=O)C(=O)O)C(C)O)C(C)O (centres unmarked) [(7)] (H-APFRMGIC(Carboxymethyl)TTN-OH; configuration not given here) .
98.541

====

Test: Stability of powders under high humidity (HPLC purity)
Format: physicochemical
Conditions: powder, RH92.5%, 25° C., 10 days
Residues, ends and D or L forms follow the SMILES beside them. *: point of attachment. CH2CO2tBu = CC(C)(C)OC(=O)C*; Carboxymethyl = O=C(O)C*; Allyl = C=CC*; X1 = CCCCCCS*; SEt = CCS*
readout type: High humidity, Day 10 (purity) (%)
Just the number in %, nothing appended.

Solved cases below.
Form field: reported High humidity, Day 10 (purity) of CCC(C)C(NC(=O)CNC(=O)C(CCSC)NC(=O)C(CCCNC(=N)N)NC(=O)C(Cc1ccccc1)NC(=O)C1CCCN1C(=O)C(C)N)C(=O)NC(CSCC(=O)OC(C)(C)C)C(=O)NC(C(=O)NC(C(=O)NC(CC(N)=O)C(=O)O)C(C)O)C(C)O (centres unmarked) [(4)] (H-APFRMGIC(CH2CO2tBu)TTN-OH; configuration not given here)
93.962

Now consider CCCCCCSSCC(NC(=O)C(NC(=O)CNC(=O)C(CCSC)NC(=O)C(CCCNC(=N)N)NC(=O)C(Cc1ccccc1)NC(=O)C1CCCN1C(=O)C(C)N)C(C)CC)C(=O)NC(C(=O)NC(C(=O)NC(CC(N)=O)C(=O)O)C(C)O)C(C)O (centres unmarked) [(6)] (H-APFRMGIC(X1)TTN-OH; configuration not given here) .
95.719

Now consider C=CCSCC(NC(=O)C(NC(=O)CNC(=O)C(CCSC)NC(=O)C(CCCNC(=N)N)NC(=O)C(Cc1ccccc1)NC(=O)C1CCCN1C(=O)C(C)N)C(C)CC)C(=O)NC(C(=O)NC(C(=O)NC(CC(N)=O)C(=O)O)C(C)O)C(C)O (centres unmarked) [Peptide (3)] (H-APFRMGIC(Allyl)TTN-OH; configuration not given here) .
96.251

Further cases:
Form field: reported High humidity, Day 10 (purity) of CCSSCC(NC(=O)C(NC(=O)CNC(=O)C(CCSC)NC(=O)C(CCCNC(=N)N)NC(=O)C(Cc1ccccc1)NC(=O)C1CCCN1C(=O)C(C)N)C(C)CC)C(=O)NC(C(=O)NC(C(=O)NC(CC(N)=O)C(=O)O)C(C)O)C(C)O (centres unmarked) [(5)] (H-APFRMGIC(SEt)TTN-OH; configuration not given here)
94.603

Now consider CCC(C)C(NC(=O)CNC(=O)C(CCSC)NC(=O)C(CCCNC(=N)N)NC(=O)C(Cc1ccccc1)NC(=O)C1CCCN1C(=O)C(C)N)C(=O)NC(CSCC(=O)O)C(=O)NC(C(=O)NC(C(=O)NC(CC(N)=O)C(=O)O)C(C)O)C(C)O (centres unmarked) [(7)] (H-APFRMGIC(Carboxymethyl)TTN-OH; configuration not given here) .
97.863
